Measured values drawn from paper PMC6272861 for this set.

# assay.target: UniProt P35503
# Sequence (P35503 29-534): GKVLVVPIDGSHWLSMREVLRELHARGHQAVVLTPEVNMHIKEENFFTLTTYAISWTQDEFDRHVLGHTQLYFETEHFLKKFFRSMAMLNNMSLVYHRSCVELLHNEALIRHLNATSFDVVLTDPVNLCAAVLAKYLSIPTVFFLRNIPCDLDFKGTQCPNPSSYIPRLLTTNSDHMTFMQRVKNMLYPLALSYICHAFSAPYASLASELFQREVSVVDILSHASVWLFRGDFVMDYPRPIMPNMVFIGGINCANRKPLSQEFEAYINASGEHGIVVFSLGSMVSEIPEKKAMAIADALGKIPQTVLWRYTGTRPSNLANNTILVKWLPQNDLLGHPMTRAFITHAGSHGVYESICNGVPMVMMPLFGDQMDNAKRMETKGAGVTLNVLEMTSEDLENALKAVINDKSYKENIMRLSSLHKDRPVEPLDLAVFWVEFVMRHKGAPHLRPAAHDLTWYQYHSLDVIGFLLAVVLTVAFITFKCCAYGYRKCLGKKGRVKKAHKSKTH
measurement.kind: pIC50
Please express pIC50 as -log10 of the molar concentration.

Observed pIC50, UniProt P35503, `COc1cc2c(c(OC)c1OC)-c1c(cc(OC)c(OC)c1OC)C[C@H](C)[C@H](C)C2` : 5.29

* * *

# assay.target: UGT2B7 (Homo sapiens, UniProt P16662)
# Sequence (P16662 24-529): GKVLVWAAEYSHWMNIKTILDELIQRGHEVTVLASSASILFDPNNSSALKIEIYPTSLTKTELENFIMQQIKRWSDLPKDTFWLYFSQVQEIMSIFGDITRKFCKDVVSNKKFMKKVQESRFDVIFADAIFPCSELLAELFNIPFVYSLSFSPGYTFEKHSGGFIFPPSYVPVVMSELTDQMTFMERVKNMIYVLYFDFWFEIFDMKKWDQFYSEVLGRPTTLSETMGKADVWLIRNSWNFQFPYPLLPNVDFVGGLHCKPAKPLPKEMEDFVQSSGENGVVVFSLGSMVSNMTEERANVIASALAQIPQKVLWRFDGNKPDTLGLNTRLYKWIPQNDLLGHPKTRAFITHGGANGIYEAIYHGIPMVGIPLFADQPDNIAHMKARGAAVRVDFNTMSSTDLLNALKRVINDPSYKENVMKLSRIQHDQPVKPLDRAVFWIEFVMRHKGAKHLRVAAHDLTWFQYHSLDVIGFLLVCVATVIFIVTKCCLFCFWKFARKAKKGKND
# procedure.summary: Inhibition of UGT2B7 (zidovudine-5′-glucuronidation) in human liver microsomes
Below, each entry is listed with its recorded IC50.

Worked examples, 3 compounds total:
compound	assay.target	IC50
CC1=C(/C=C/C(C)=C/C=C/C(C)=C/C=C/C=C(C)/C=C/C=C(C)/C=C/C2=C(C)C(=O)[C@@H](O)CC2(C)C)C(C)(C)C[C@H](O)C1=O	UGT2B7 (Homo sapiens, UniProt P16662)	> 50 µM
CC1=C[C@H](O)CC(C)(C)[C@H]1/C=C/C(C)=C/C=C/C(C)=C/C=C/C=C(C)/C=C/C=C(C)/C=C/C1=C(C)C[C@@H](O)CC1(C)C	UGT2B7 (Homo sapiens, UniProt P16662)	> 50 µM
O=C1Nc2ccc(Cl)cc2[C@@](C#CC2CC2)(C(F)(F)F)O1 [Efavirenz, efavirenz, reference compound]	UGT2B7 (Homo sapiens, UniProt P16662)	37.8 µM

Please find the next compound below.
Form: compound = `CC1=C(/C=C/C(C)=C/C=C/C(C)=C/C=C/C=C(C)/C=C/C=C(C)/C=C/C2=C(C)C[C@@H](O)CC2(C)C)C(C)(C)C[C@H](O)C1` ; IC50 = > 50 µM
